MEASUREMENT TARGET: Autotaxin (Homo sapiens, UniProt Q13822)
ASSAY OVERVIEW: Inhibition of glycosylated human ATX using LPC 16:0 as substrate after 30 mins by luminescence assay
As shown below, each of these compounds has a reported log10 IC50 value.
Log scale reminder: IC50 in µM, then log10 taken.

Known results for compounds:
STRUCTURE AS SMILES: CCc1nc2ccc(C3CCN(S(C)(=O)=O)CC3)cn2c1N(C)c1nc(-c2ccc(F)cc2F)cs1
ASSAY RESULT: 0.31

STRUCTURE AS SMILES: CCc1nc2ccc(C3CCN(S(C)(=O)=O)CC3)cn2c1N(C)c1nc(-c2ccc(F)cc2)c(C(N)=O)s1
ASSAY RESULT: 0.15

STRUCTURE AS SMILES: CCc1nc2ccc(N3CCN(CCO)CC3)cn2c1N(C)c1nc(-c2ccc(F)cc2)cs1
ASSAY RESULT: 0.37

STRUCTURE AS SMILES: CCc1nc2ccc(C3CCN(S(C)(=O)=O)CC3)cn2c1N(C)c1nc2c(s1)Cc1cc(F)ccc1-2
ASSAY RESULT: 0.08

Item CCc1nc2ccc(C3CCN(S(C)(=O)=O)CC3)cn2c1N(C)c1nc(-c2ccc(C(C)(C)C)cc2)cs1 has what recorded log10 IC50?
0.88

Field entry: CCc1nc2ccc(C3CCN(S(C)(=O)=O)CC3)cn2c1N(C)c1nc(-c2ccc(Cl)nc2)cs1
-0.31

Field entry: CCc1nc2ccc(C3CCN(S(C)(=O)=O)CC3)cn2c1N(C)c1nc(-c2ccc(F)cc2C#N)cs1
-0.90

Field entry: CCc1nc2ccc(C3CCN(S(C)(=O)=O)CC3)cn2c1N(C)c1nc(C2CCCCC2)cs1
0.28

Field entry: CCc1nc2ccc(C3CCN(S(C)(=O)=O)CC3)cn2c1N(C)c1nc(-c2ccc(C(F)(F)F)cc2)cs1
0.00

Field entry: CCOC(=O)CN1CCC(c2ccc3nc(CC)c(N(C)c4nc(-c5ccc(F)cc5)cs4)n3c2)CC1
-0.32

Field entry: CCOC(=O)N1CCC(NCc2ccc3nc(CC)c(N(C)c4nc(-c5ccc(Cl)cc5)cs4)n3c2)CC1
0.08

Field entry: CCc1nc2ccc(N3CCN(Cc4ncon4)CC3)cn2c1N(C)c1nc(-c2ccc(F)cc2)cs1
0.23

Field entry: CCc1nc2ccc(C3CCN(CC(N)=O)CC3)cn2c1N(C)c1nc(-c2ccc(F)cc2)cs1
0.37

Field entry: CCc1nc2ccc(C3CCN(CC(=O)N(C)C)CC3)cn2c1N(C)c1nc(-c2ccc(F)cc2)cs1
-0.58

Field entry: CCc1nc2ccc(N3CCOCC3)cn2c1N(C)c1nc(-c2ccc(F)cc2)cs1
0.83

* * *

MEASUREMENT TARGET: Autotaxin (Homo sapiens, UniProt Q13822)
ASSAY OVERVIEW: Inhibition of glycosylated human ATX using LPC 16:0 as substrate after 30 mins by luminescence assay
VALUE KIND: pIC50
On this scale, pIC50 is minus log10 of a concentration expressed in M (mol/L).

Known results for compounds:
STRUCTURE AS SMILES: CCc1nc2ccc(C3CCN(S(C)(=O)=O)CC3)cn2c1N(C)c1nc(-c2ccc(F)cc2)c(C)s1
pIC50: 5.64
--
STRUCTURE AS SMILES: CCc1nc2ccc(C3CCN(S(C)(=O)=O)CC3)cn2c1N(C)c1nc(-c2ccc(F)cc2)cs1
pIC50: 6.15
--
STRUCTURE AS SMILES: CCc1nc2ccc(C3CCN(S(C)(=O)=O)CC3)cn2c1N(C)c1nc2c(s1)Cc1ccc(F)cc1-2
pIC50: 6.09

Which pIC50 is reported with Autotaxin (Homo sapiens, UniProt Q13822) for this entry: CCc1nc2ccc(C3CCN(S(=O)(=O)CCCN(C)C)CC3)cn2c1N(C)c1nc(-c2ccc(F)cc2)cs1 ?
6.45

Field entry: CCc1nc2ccc(N3CCN(Cc4ncco4)CC3)cn2c1N(C)c1nc(-c2ccc(F)cc2)cs1
5.82
